Item-by-item account of Binding of peptide-HLA-E complexes to CD94/NKG2C normalized to a theoretical Rmax
- ASSAY_SYSTEM: CD94/NKG2C (Homo sapiens, UniProt P26717+Q13241)
- Sequence (P26717 94-231 limits assumed): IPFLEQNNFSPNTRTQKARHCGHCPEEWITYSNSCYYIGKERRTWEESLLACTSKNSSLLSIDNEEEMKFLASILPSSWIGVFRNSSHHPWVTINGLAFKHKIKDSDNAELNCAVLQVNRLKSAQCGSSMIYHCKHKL
- Sequence (Q13241 32-179 limits assumed): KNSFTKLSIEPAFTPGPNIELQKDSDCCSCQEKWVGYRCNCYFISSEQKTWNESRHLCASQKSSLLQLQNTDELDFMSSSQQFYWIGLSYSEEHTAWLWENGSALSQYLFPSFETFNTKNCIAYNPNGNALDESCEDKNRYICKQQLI
- ASSAY_SUMMARY: Steady-state surface plasmon resonance of peptide-HLA-E complex with CD94/NKG2C
- Assay type: binding
- CONDITION: steady-state SPR; CD94/NKG2C analyte concentration 3.2 μM
Where no end group is shown, it is not given here.
Answer field: number only, no words.

residues="QMPSRSLLF [human1, QMPSRSLLF]" result_number=0.151
residues="TAPARTMFL [human13, TAPARTMFL]" result_number=0.149
residues="TLPKRGLFL [human2, TLPKRGLFL]" result_number=0.124

Ask | I would be grateful if you could share the reported Binding of peptide-HLA-E complexes to CD94/NKG2C normalized to a theoretical Rmax for TGPWRSLWI [human3, TGPWRSLWI] .
Reply | 0.017

Ask | Same read-out for VNPGRSLFL [human5, VNPGRSLFL] ?
Reply | 0.240

---

- Tested on: NKG2A−/NKG2C− NK cells
- ASSAY_SUMMARY: NK cell activation markers in control NKG2A-/NKG2C- NK cells incubated with peptide and K562 expressing HLA-E
- Assay type: cell-based, human
- CONDITION: Trial 4
- Procedure: A human immortalized myelogenous leukemia cell line (K562), which expresses HLA-E was incubated with novel peptides (Table 1) derived from the human proteome or human cytomegalovirus proteome. […] Controls assessments were also performed using NKG2A−/NKG2C− cells (Tables 10-13). Inhibition was indicated by a decrease in percent cells positive for cell surface markers, while activation was indicated by an increase in percent cells positive for cell surface markers.
Where no end group is shown, it is not given here.
Tick met if percentage CD107+ NK cells is 30% or greater. Tick not met if percentage CD107+ NK cells is less than 30%.

Example entries and their recorded answers appear below.
residues="VMPGRTLCF [human11, peptide TACR3 226-234 derived from the human proteome]" label_class="not met"
residues="VLPHRTQFL [CMV1, novel CMV-derived peptide UL120 72-80, Merlin]" label_class="not met"

Ask | Dear colleague, could you confirm whether FLPNRSLLF [human8, peptide SLC52A3 354-362 derived from the human proteome] has percentage CD107+ NK cells at or above 30%?
Reply | not met

Ask | Same read-out for TGPWRSLWI [human3, TGPWRSLWI] ?
Reply | met

Ask | Same read-out for TAPARTMFL [human13, TAPARTMFL] ?
Reply | met

Ask | Same read-out for VNPGRSLFL [human5, VNPGRSLFL] ?
Reply | not met

Ask | Same read-out for VMAPQSLLL [VMAPQSLLL (PQS), negative control peptide, reference compound] ?
Reply | not met

Ask | Same read-out for TLPERTLYL [human7, peptide ECEL1 269-277 derived from the human proteome] ?
Reply | not met

Ask | Same read-out for NMPARTVLF [human14, peptide MTREX 490-498 derived from the human proteome] ?
Reply | not met

Ask | Same read-out for ILTDRSLWL [human4, peptide FBXO41 670-678 derived from the human proteome] ?
Reply | met

Ask | Same read-out for VMAPRTLIL [VMAPRTLIL (LIL), positive control peptide, reference compound] ?
Reply | not met
